Entries annotated with measured log10(GI50)
- Test system: Melanoma
- protocol: cells
- reported conditions: Homo sapiens, read-out: MG_MID GI50
assay readout: log10(GI50) (log10 of the value in nM)

>  <compound>
O=C(O)CCN1C(=O)/C(=C/C=C/c2ccc([N+](=O)[O-])o2)SC1=S [12b]

>  <log10(GI50)>
3.06

$$$$
>  <compound>
O=C(O)CCCCCN1C(=O)/C(=C/C=C/c2ccc([N+](=O)[O-])o2)SC1=S [14b]

>  <log10(GI50)>
2.88

$$$$
>  <compound>
CCCCC(C(=O)O)N1C(=O)/C(=C/C=C/c2ccc([N+](=O)[O-])o2)SC1=S (stereo not shown) [6b]

>  <log10(GI50)>
3.25

$$$$
>  <compound>
O=C(O)CCCN1C(=O)/C(=C/C=C/c2ccc([N+](=O)[O-])o2)SC1=S [13b]

>  <log10(GI50)>
2.77

$$$$
>  <compound>
CCCC(C(=O)O)N1C(=O)/C(=C/C=C/c2ccc([N+](=O)[O-])o2)SC1=S (stereo not shown) [4b]

>  <log10(GI50)>
3.22

$$$$
>  <compound>
O=C(O)C(c1ccccc1)N1C(=O)/C(=C/C=C/c2ccc([N+](=O)[O-])o2)SC1=S (stereo not shown) [9b]

>  <log10(GI50)>
3.87

$$$$
>  <compound>
CC(C)C(C(=O)O)N1C(=O)/C(=C/C=C/c2ccc([N+](=O)[O-])o2)SC1=S (stereo not shown) [5b]

>  <log10(GI50)>
3.10

$$$$
